Exercise: for every item that follows, state its recorded viability, T/C.
Tested on: 379773-124-R-J2-PDC spheroid viability;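 note: spheroids exposed to drugs for seven days before readout; percent viability relative to DMSO vehicle control taken as 100%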
Measurement Notes: Anticancer human tumor 379773-124-R-J2-PDC patient-derived endometrial carcinoma cell line growth inhibition [POLQ]
Test Settings: second compound 3.16 µM; first compound 0.0316 µM; active compounds read low; spheroids with HUVEC and MSC
Number only, in %; omit the unit.

Query string: Fill in viability, T/C for record COc1cccc(OCCCN)c1-c1cc(Nc2cnc(C#N)cn2)n[nH]1 + Cc1cccc(N(C)C(=O)C2C(O)CCN2c2nc(C)cc(C(F)(F)F)c2C#N)c1
Result string: 3.07

Query string: Fill in viability, T/C for record CC1COCCN1c1cc(-c2ccnn2C)c2ccnc(-c3ccn[nH]3)c2n1 (stereo not given) + Nc1ccc(C#CCN(C(=O)Cc2ncc(C(F)(F)F)cc2C(F)(F)F)c2ccc(F)cc2)nn1
Result string: 91.4

Query string: Fill in viability, T/C for record Cn1ncnc1[C@H]1c2n[nH]c(=O)c3cc(F)cc(c23)N[C@@H]1c1ccc(F)cc1 + Cc1cccc(N(C)C(=O)C2C(O)CCN2c2nc(C)cc(C(F)(F)F)c2C#N)c1
Result string: 70.2

Query string: Fill in viability, T/C for record C=CC(=O)N1CCN(c2nc(=O)n(-c3c(C)ccnc3C(C)C)c3nc(-c4c(O)cccc4F)c(F)cc23)C(C)C1 (stereo not given) + COC1C(OC(N)=O)C(O)C(Oc2ccc3c(O)c(NC(=O)c4ccc(O)c(CC=C(C)C)c4)c(=O)oc3c2C)OC1(C)C
Result string: 73.2

Query string: Fill in viability, T/C for record CCc1cc2c(N3CCc4c(cc(Cn5ccnc5)cc4-c4cn(C)nc4C(F)(F)F)C3=O)ccnc2c(OC)n1 + Cc1cccc(N(C)C(=O)C2C(O)CCN2c2nc(C)cc(C(F)(F)F)c2C#N)c1
Result string: 73.5
